For each entry below, report its PS [100 nM] (% stimulation) value.
# Tested on: T47D human breast carcinoma cells
# experiment.notes: cells
# Assay type: cell-based
# reported.conditions: agonistic mode, alkaline phosphatase induction (100% = 1 nM Dydrogesterone), compound 100 nM, T47D cells
Number first, unit second.

// recorded PS [100 nM] (% stimulation) for CC(=O)[C@H]1CC[C@H]2[C@@H]3C=CC4=CC(=O)CC[C@]4(C)[C@H]3C(OC(=O)Nc3ccc4ncccc4c3)C[C@]12C (some centres unmarked) : 4.0%

// recorded PS [100 nM] (% stimulation) for CC(=O)[C@H]1CC[C@H]2[C@@H]3C=CC4=CC(=O)CC[C@@]4(C)[C@@H]3C(OC(=O)Nc3ccc(C)c(Br)c3)C[C@]12C (some centres unmarked) : 4.0%

// recorded PS [100 nM] (% stimulation) for COc1cc(NC(=O)OC2C[C@]3(C)[C@@H](C(C)=O)CC[C@H]3[C@@H]3C=CC4=CC(=O)CC[C@@]4(C)[C@H]23)cc(-n2cnnn2)c1 (some centres unmarked) : 1.0%

// recorded PS [100 nM] (% stimulation) for CC(=O)[C@H]1CC[C@H]2[C@@H]3C=CC4=CC(=O)CC[C@@]4(C)[C@@H]3C(OC(=O)Nc3cccc(OC(F)(F)F)c3)C[C@]12C (some centres unmarked) : 89.0%

// recorded PS [100 nM] (% stimulation) for CC(=O)[C@H]1CC[C@H]2[C@@H]3C=CC4=CC(=O)CC[C@@]4(C)[C@@H]3C(OC(=O)Nc3ccc4c(c3)NC(=O)C(C)S4)C[C@]12C (some centres unmarked) : 0.0%

// recorded PS [100 nM] (% stimulation) for CSc1ccc(NC(=O)OC2C[C@]3(C)[C@@H](C(C)=O)CC[C@H]3[C@@H]3C=CC4=CC(=O)CC[C@@]4(C)[C@H]23)cc1 (some centres unmarked) : 1.0%

// recorded PS [100 nM] (% stimulation) for CC(=O)[C@H]1CC[C@H]2[C@@H]3C=CC4=CC(=O)CC[C@@]4(C)[C@@H]3C(OC(=O)Nc3ccc(OC(F)F)cc3)C[C@]12C (some centres unmarked) : 0.0%

// recorded PS [100 nM] (% stimulation) for CC(=O)[C@H]1CC[C@H]2[C@@H]3C=CC4=CC(=O)CC[C@@]4(C)[C@@H]3C(OC(=O)Nc3cccc(N4CCCC4=O)c3)C[C@]12C (some centres unmarked) : 1.0%

* * *

For each entry below, report its EC50 value.
# System: T47D human breast carcinoma cells
# experiment.notes: cells
# Type: cell-based
# reported.conditions: Homo sapiens, T47D, read-out: pEC50 (converted)
Number first, unit second.

// recorded EC50 for COc1ccc(C(=O)O[C@H]2C[C@]3(C)[C@@H](C(C)=O)CC[C@H]3[C@@H]3C=CC4=CC(=O)CC[C@@]4(C)[C@@H]32)cc1 : 12.6 nM

// recorded EC50 for CCNC(=O)O/N=C/c1cccc(NC(=O)O[C@H]2C[C@]3(C)[C@@H](C(C)=O)CC[C@H]3[C@@H]3C=CC4=CC(=O)CC[C@@]4(C)[C@@H]32)c1 : 200 nM

// recorded EC50 for COc1ccc(CNC(=O)O[C@H]2C[C@]3(C)[C@@H](C(C)=O)CC[C@H]3[C@@H]3C=CC4=CC(=O)CC[C@@]4(C)[C@@H]32)cc1 : 50.1 nM

// recorded EC50 for CC(=O)[C@H]1CC[C@H]2[C@@H]3C=CC4=CC(=O)CC[C@@]4(C)[C@@H]3[C@@H](OC(=O)Nc3ccc4c(c3)OCO4)C[C@]12C : 398 nM
